Test system: OVCAR-3 ovarian
TEST: NCI-60 one-dose screen, 48 h (100 = growth as untreated, 0 = no growth, -100 = all killed)
TEST CONDITIONS: 10 µM
About 83,000 compounds went through this panel and 20% of them were active in at least one assay; those are over-represented in the sample as a whole. Activity calls are given as the source filed them. The calls were made as follows: active = growth percent below 10; inactive = the rest.
ASSAY ENDPOINT: growth

1) Cc1cc(Cl)ccc1NC(=O)/C(Cl)=C1/Sc2ccccc2NC1=O
95.4% (inactive)
2) COc1ccc(N)c2c1C(=O)c1ccccc1C2=O
115% (inactive)
3) COc1cccc(C(c2cc3c(cc2O)OCO3)N2CCOCC2)c1OC (stereo not drawn)
111% (inactive)
4) Cn1ncc2cc3c(Nc4ccc(Cl)cc4)cccc3nc21
94.1% (inactive)
5) Cc1c(-c2ccccc2)[nH]c2ccccc12
105% (inactive)
6) CN(C)CCNc1cccc2sc3ccc(O)cc3c(=O)c12
41.8% (inactive)
7) O=S(=O)(c1cc(Cl)ccc1O)c1cc(Cl)ccc1O
78% (inactive)

Then this compound:
Cc1cc(C)c(N2C(=O)CC(Sc3ccccc3N)C2=O)c(C)c1 (stereo not drawn) has a reported growth of 71.1% (inactive)

---

Test system: PC-3 prostate
TEST: NCI-60 one-dose screen, 48 h
TEST CONDITIONS: 10 µM
The panel holds about 83,000 compounds, 20% with a hit somewhere; the sample as a whole holds those more often. Activity calls are given as the source filed them. How the source made its calls: active means growth percent below 10; inactive means the rest.
Outcome field: choose from active, inactive

1. Cn1ncc2cc3c(Nc4ccc(Cl)cc4)cccc3nc21
inactive
2. O=C1c2cccc3cc([N+](=O)[O-])cc(c23)C(=O)N1CCN1CCCC1
inactive

Kindly consider the entry below.
Which outcome did this test record for the compound COc1ccc2oc(-c3ccc(Cl)cc3)c(N3CCN(C)CC3)c2c1 ?
active

---

Test system: OVCAR-4 ovarian
TEST: NCI-60 one-dose screen, 48 h
TEST CONDITIONS: 10 µM
The panel holds about 83,000 compounds, 20% with a hit somewhere; the sample as a whole holds those more often. Calls of active or inactive are those of the source. How the source made its calls: active means growth percent below 10; inactive means the rest.
Hi! Could you answer with just one of these? active, inactive

Here are 2 compounds together with their reported answers.
1) O=C(O)c1ccccc1.[Ag]
inactive
2) CC1CCC2(C(=O)O)CCC3(C)C(=CCC4C5(C)CC(O)C(O)C(C)(CO)C5C(O)CC43C)C2C1C (centres undefined)
inactive

Hi, sorry to bother you, what did the test record for Cc1cc(Cl)ccc1NC(=O)/C(Cl)=C1/Sc2ccccc2NC1=O ?
inactive

Call for entry O=S(=O)(c1cc(Cl)ccc1O)c1cc(Cl)ccc1O :
inactive

Assay result, entry CCOC(=O)[C@]1(Br)CC[C@@]1(Br)C(=O)OCC — outcome?
inactive

I would be grateful if you could indicate the recorded call for O=C1c2ccccc2CCC1(Br)Br .
active

Called result for O=c1[nH]cc(/C=N\Nc2ccccc2)c(=O)[nH]1
inactive

Fill in: this test's call for N#CC(=C1C=CC(=NO)C=C1)c1ccccc1 is ___
inactive

For this compound, state the assay outcome: COc1ccc(N)c2c1C(=O)c1ccccc1C2=O
inactive

Record request — test call for CC[C@@]1(OC(=O)CN(C)C)C(=O)OCc2c1cc1n(c2=O)Cc2cc3c(N)cccc3nc2-1
inactive

Which outcome did this test record for the compound CCC(=O)Oc1ccc(/C=N/NC(N)=S)nc1 ?
inactive

Could you check what this test reported for Cc1c(-c2ccccc2)[nH]c2ccccc12 ?
inactive

For this compound, state the assay outcome: COc1cccc(C(c2cc3c(cc2O)OCO3)N2CCOCC2)c1OC (centres undefined)
inactive

Which result was noted for this compound in the test: O=C(CNS(=O)(=O)Cc1ccccc1)NNc1ccccc1
inactive

---

Tested on: IGROV1 ovarian
TEST: NCI-60 one-dose screen, 48 h (100 = growth as untreated, 0 = no growth, -100 = all killed)
TEST CONDITIONS: 10 µM
This is part of a sample that, as a whole, favours compounds with a hit. Of some 83,000 tested, about 20% had one in any assay.
Recorded growth by entry
Give the value in % but do not write % after it.

Some compounds with recorded growth:
1) S=C1SCN(CCc2ccccc2)CN1CCc1ccccc1
105
2) NCc1c(O)ccc2ccccc12
94.7

GET /value?item= O=C1c2cccc3cc([N+](=O)[O-])cc(c23)C(=O)N1CCN1CCCC1 &field=growth returns -2.59

---

System: NCI-H226 lung
TEST: NCI-60 one-dose screen, 48 h (100 = growth as untreated, 0 = no growth, -100 = all killed)
TEST CONDITIONS: 10 µM
About 83,000 compounds went through this panel and 20% of them were active in at least one assay; those are over-represented in the sample as a whole.
ASSAY ENDPOINT: growth (%)
// units = %; emit number, no label

Please review the following examples before continuing.
1) Cc1cc(O)c2c(c1O)C(=O)C13C(=C2O)C(=O)C2C(O)C1C1C(O)C3C(=O)C3=C(O)c4c(O)cc(C)c(O)c4C(=O)C321 (centres undefined)
-2.71
2) O=C(CNS(=O)(=O)Cc1ccccc1)NNc1ccccc1
72.9
3) Nc1nc(N)c2cc(Sc3ccc4ccccc4c3)ccc2n1
57.7
4) Cc1cc(N=C2C=CC(=[N+](C)C)C=C2)c(N)cc1N
97.9
5) S=C1SCN(CCc2ccccc2)CN1CCc1ccccc1
99.4

# COc1cccc(C(c2cc3c(cc2O)OCO3)N2CCOCC2)c1OC (centres undefined) with NCI-H226 lung: growth is 99.6

growth on NCI-H226 lung for CN(C)c1ccc(/C=C/c2ccnc3ccccc23)cc1N is 53

NCI-H226 lung assay, compound C=C1N(C)c2ccc(Cl)cc2C1(C)C , recorded growth = 67.6

The compound N#C/C(=C/N1C(=O)/C(=C/c2ccc([N+](=O)[O-])cc2)SC1=S)c1nc2ccccc2s1 , when measured on NCI-H226 lung, yielded growth of 63.8

---

System: NCI-H460 lung
TEST: NCI-60 one-dose screen, 48 h (100 = growth as untreated, 0 = no growth, -100 = all killed)
TEST CONDITIONS: 10 µM
Compounds without any hit were thinned out: in the full panel of roughly 83,000, 20% have a hit.
ASSAY ENDPOINT: growth (%)
Give the value in % but do not write % after it.

1. CCC(=O)Oc1ccc(/C=N/NC(N)=S)nc1
52
2. O=C(O)c1ccccc1.[Ag]
100
3. Cc1c(-c2ccccc2)[nH]c2ccccc12
104
4. COc1cccc(C(c2cc3c(cc2O)OCO3)N2CCOCC2)c1OC (stereo not given)
104

Alright, here's another compound for you.
Item: O=C(NC(=S)Nc1ccccn1)c1ccccc1 | growth: 94
